- measuredOn: full-length beta-Catenin (Uniprot ID P35222) (Homo sapiens, UniProt P35222)
- Construct: 10 nM full-length beta-Catenin (Uniprot ID P35222)
- Sequence (P35222 whole entry): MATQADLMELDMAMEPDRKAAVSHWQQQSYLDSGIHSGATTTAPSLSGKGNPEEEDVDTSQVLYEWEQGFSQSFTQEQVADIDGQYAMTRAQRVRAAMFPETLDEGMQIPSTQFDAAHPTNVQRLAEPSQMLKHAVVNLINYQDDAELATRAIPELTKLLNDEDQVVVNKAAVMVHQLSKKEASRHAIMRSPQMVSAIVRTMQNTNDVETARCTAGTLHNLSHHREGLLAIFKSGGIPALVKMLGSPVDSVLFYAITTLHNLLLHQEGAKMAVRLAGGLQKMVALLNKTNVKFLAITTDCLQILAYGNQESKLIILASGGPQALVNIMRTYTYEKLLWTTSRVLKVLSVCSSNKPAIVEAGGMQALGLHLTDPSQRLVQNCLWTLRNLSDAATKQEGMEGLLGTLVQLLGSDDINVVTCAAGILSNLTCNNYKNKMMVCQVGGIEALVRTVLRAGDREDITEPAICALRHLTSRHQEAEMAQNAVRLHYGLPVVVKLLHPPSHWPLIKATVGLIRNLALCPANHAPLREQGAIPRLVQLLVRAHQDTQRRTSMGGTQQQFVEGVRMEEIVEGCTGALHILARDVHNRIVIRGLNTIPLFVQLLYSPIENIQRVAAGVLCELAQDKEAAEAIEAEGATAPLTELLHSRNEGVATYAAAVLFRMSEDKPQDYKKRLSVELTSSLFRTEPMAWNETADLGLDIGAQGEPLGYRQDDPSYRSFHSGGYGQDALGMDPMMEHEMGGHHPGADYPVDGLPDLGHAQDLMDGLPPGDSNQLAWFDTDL
- measurementNotes: Fluorescence polarization IC50 (beta-catenin / 5FAM-TCF4 10-53 competition)
- Type: binding
- assaySetup: fluorescence polarization; read-out: beta-Catenin FP IC50
# label = satisfied if IC50 < 50 nM else not satisfied

Asked: # check: IC50 < 50 nM for C#CC(=O)N1CCC[C@]12CC=CCCCC1(CCCC=CCCCOC(=O)N3CC[C@@](C(=O)N[C@@H](Cc4ccsc4)C(=O)N[C@@H](Cc4csc5ccccc45)C(=O)N[C@@H](Cc4c[nH]cn4)C(N)=O)(C3)NC(=O)[C@H](CCC(N)=O)NC(=O)[C@H](Cc3ccccc3)NC(=O)[C@H](C)NC(=O)[C@H](C)NC(=O)[C@H](CC(=O)O)NC(=O)[C@H](CC(=O)O)NC1=O)NC(=O)[C@H](CC(C)(C)C)NC(=O)[C@H](CC(=O)O)NC2=O (stereo partly drawn) [I-2402]
Given back: satisfied

Asked: Consider the compound CC(=O)N1CCC[C@]12CC=CCCCC1(CCCC=CCCCOC(=O)N3CC[C@@](C(=O)N[C@@H](Cc4ccsc4)C(=O)N[C@@H](Cc4csc5ccccc45)C(=O)N[C@@H](CC(C)C)C(N)=O)(C3)NC(=O)[C@H](CC(N)=O)NC(=O)[C@H](Cc3ccccc3)NC(=O)[C@H](C)NC(=O)[C@H](C)NC(=O)[C@H]([C@@H](C)O)NC(=O)[C@H](CC(N)=O)NC1=O)NC(=O)[C@H](CC(C)(C)C)NC(=O)[C@H](CC(=O)O)NC2=O (stereo partly drawn) [I-1881] . Is its IC50 strictly less than 50 nM?
Given back: not satisfied

Asked: Just wondering, is IC50 of CC(=O)N1CCC[C@]12CC=CCCCC1(CCCC=CCCCOC(=O)N3CC[C@@](C(=O)N[C@@H](Cc4ccccc4)C(=O)N[C@@H](Cc4csc5ccccc45)C(=O)N[C@@H](CCC(N)=O)C(N)=O)(C3)NC(=O)[C@H](CC(C)C)NC(=O)[C@H](Cc3ccccc3)NC(=O)[C@H](C)NC(=O)[C@H](CCCCNC(C)C)NC(=O)[C@H]([C@@H](C)O)NC(=O)[C@H](CC(=O)O)NC1=O)NC(=O)[C@H](CCCCNC(C)C)NC(=O)[C@H](CC(N)=O)NC2=O (stereo partly drawn) [I-1591] below 50 nM?
Given back: not satisfied

Asked: Criterion: IC50 strictly below 50 nM. Is it met by CC[C@H](C)[C@@H]1NC(=O)[C@H](CC(=O)O)NC(=O)[C@]2(CC=CCCCC3(CCCC=CCCCCCC[C@@](C)(C(=O)N[C@@H](Cc4ccccc4)C(=O)N[C@@H](Cc4csc5ccccc45)C(=O)N[C@@H](CCC(N)=O)C(N)=O)NC(=O)[C@H](CCC(N)=O)NC(=O)[C@H](Cc4ccccc4)NC(=O)[C@H](C)NC(=O)[C@H](CO)NC(=O)[C@H](CCC(=O)O)NC(=O)[C@H](CC(=O)O)NC3=O)NC1=O)CCCN2C(C)=O (stereo partly drawn) [I-652] ?
Given back: not satisfied

Asked: Is 50 nM strictly greater than the compound's reported IC50? compound: CC(=O)N1CCC[C@]12CC=CCCCC1(CCCC=CCCCCCC[C@@](C)(C(=O)N[C@@H](Cc3ccsc3)C(=O)N[C@@H](Cc3csc4ccccc34)C(=O)N[C@@H](CCC(N)=O)C(N)=O)NC(=O)[C@H](CC(N)=O)NC(=O)[C@H](Cc3ccccc3)NC(=O)[C@H](C)NC(=O)[C@H](C)NC(=O)[C@H](CCC(=O)O)NC(=O)[C@H](CC(=O)O)NC1=O)NC(=O)[C@H](C)NC(=O)[C@H](CC(=O)O)NC2=O (stereo partly drawn) [I-519]
Given back: satisfied

Asked: Confirm or reject: IC50 of CC(=O)N1CCC[C@]12CC=CCCCC1(CCCC=CCCCOC(=O)N3CC[C@@](C(=O)N[C@@H](Cc4ccsc4)C(=O)N[C@@H](Cc4csc5ccccc45)C(=O)N[C@@H](CC(C)C)C(N)=O)(C3)NC(=O)[C@H](CC(C)C)NC(=O)[C@H](Cc3ccccc3)NC(=O)[C@H](C)NC(=O)[C@H](CCC(N)=O)NC(=O)[C@H](Cc3cccc(C(=O)O)c3)NC(=O)[C@H](CC(=O)O)NC1=O)NC(=O)[C@H](CC(C)(C)C)NC(=O)[C@H](CC(=O)O)NC2=O (stereo partly drawn) [I-2056] lies strictly below 50 nM
Given back: satisfied

Asked: is_below(IC50, 50 nM) for CC[C@H](C)[C@@H]1NC(=O)[C@H](CC(=O)O)NC(=O)[C@]2(CC=CCCCC3(CCCC=CCCCCCC[C@@](C)(C(=O)N[C@@H](Cc4ccsc4)C(=O)N[C@@H](Cc4csc5ccccc45)C(=O)N[C@@H](CCC(N)=O)C(N)=O)NC(=O)[C@H](CC(N)=O)NC(=O)[C@H](Cc4ccccc4)NC(=O)[C@H](C)NC(=O)[C@H](C)NC(=O)[C@H](CC(=O)O)NC(=O)[C@H](CC(=O)O)NC3=O)NC1=O)CCCN2C(C)=O (stereo partly drawn) [I-552] ?
Given back: satisfied

Asked: Given the entry CC(=O)N1CCC[C@]12CC=CCCCC1(CCCC=CCCCCCC[C@@](C)(C(=O)N[C@@H](Cc3ccsc3)C(=O)N[C@@H](Cc3csc4ccccc34)C(=O)N[C@@H](CCC(N)=O)C(N)=O)NC(=O)[C@H](CC(N)=O)NC(=O)[C@H](Cc3ccccc3)NC(=O)[C@H](C)NC(=O)[C@H](C)NC(=O)[C@H](CN(CC(=O)O)C(C)C)NC(=O)[C@H](CC(=O)O)NC1=O)NC(=O)[C@H](CC(C)(C)C)NC(=O)[C@H](CC(=O)O)NC2=O (stereo partly drawn) [I-1452] , would its reported IC50 be below 50 nM?
Given back: not satisfied
